# target-of-assay: SARS-CoV-2 spike receptor-binding domain (RBD) (SARS-CoV-2, Wuhan-Hu-1, UniProt P0DTC2)

binder	binding result
G9 (antibody, V domains shown) VH: QVQLVQSGAEVKKPGASVKVSCKVSGYSFTDHSIHWVRQAPGKGLEWMGGINPYTGDTIYAQKFQGRVTMTEDTSTDTAYMELSSLKSEDTAVYYCARDGYGDYRGLYGMDVWGRGTTVTVSS VL: DIQMTQSPSSVSASVGDRVTITCRASQDIGNHLAWYQQKPGKAPKLLIYASSNLASGVPSRFSGSGSGTDFTLTISSLQPEDFANYYCHQYATYPWTFGGGTKVEIK	binds
E4 (antibody, V domains shown) VH: QVQLVQSGAEVKKPGASVKVSCKVSGYSFTDHSIHWVRQAPGKGLEWMGGINPYTGDTIYAQKFQGRVTMTEDTSTDTAYMELSSLKSEDTAVYYCARDGYDFWSGSYGMDVWGQGTLVTVSS VL: DIQMTQSPSSVSASVGDRVTITCRASQDIGNHLAWYQQKPGKAPKLLIYASSNLASGVPSRFSGSGSGTDFTLTISSLQPEDFANYYCHQYATYPWTFGGGTKVEIK	binds
H9 (antibody, V domains shown) VH: EVQLVESGAEVKKPGASVKVSCKVSGYSFTDHSIHWVRQAPGKGLEWMGGINPYTGDTIYAQKFQGRVTMTEDTSTDTAYMELSSLKSEDTAVYYCARDAYSGSYPYYYYGMDVWGQGTTVTVSS VL: DIQMTQSPSSVSASVGDRVTITCRASQNIDTFLAWYQQKPGKAPKLLIYASSNLASGVPSRFSGSGSGTDFTLTISSLQPEDFANYYCHQYATYPWTFGDGTKVEIK	binds
